- Tested on: DeltatarO mutant
- ASSAY_DETAILS: S. aureus survival, RN4220 and DeltatarO strains – OD600, teichoic acid synthesis inhibitors, primary screen (AID 463173)
- CONDITION_DESCRIPTION: S. aureus RN4220 wild type/DeltatarO growth, OD600, 18 h, hits give low values, screened at 18.75 µg/mL (by protocol)
Out of some 52,000 compounds screened, about 4,300 (8.3%) were called active. The sample as a whole holds a higher share of actives than the screen did.
ATTRIBUTE_MEASURED: survival (%)
State the answer as a number, implicitly in %.

Fill in the blank: the reported survival of CCc1ccc(CNC(=O)CCn2c(=O)c3cccn3c3ccc(F)cc32)cc1 is ____.
91

Fill in the blank: the reported survival of Cc1ccc(NC(=O)Cn2c(=O)cc(-c3ccccc3)c3c(C)nn(C)c32)c(Cl)c1 is ____.
78

Fill in the blank: the reported survival of CCOc1ccc(CNC(=O)CCn2c(=O)c3cccn3c3ccc(F)cc32)cc1 is ____.
45

Fill in the blank: the reported survival of CCCCOC(=O)c1ccc(NC(=O)/C(C#N)=C/c2ccc(-c3ccccc3)o2)cc1 is ____.
32

Fill in the blank: the reported survival of CCOc1ccc(CNC(=O)CCCn2c(=O)c3cccn3c3ccc(F)cc32)cc1 is ____.
41

More entries:
Fill in the blank: the reported survival of O=C(CCCn1c(=O)c2cccn2c2ccc(F)cc21)NCc1ccc(Cl)cc1 is ____.
38

Fill in the blank: the reported survival of Cc1cccc(OCC(=O)Nc2cccc(OCc3cc(=O)n4cccc(C)c4n3)c2)c1 is ____.
109

Fill in the blank: the reported survival of CCOc1ccccc1CNC(=O)CCCn1c(=O)c2cccn2c2ccc(F)cc21 is ____.
33

Fill in the blank: the reported survival of CC(C)S(=O)(=O)c1oc(-c2ccc(F)cc2)nc1S(=O)(=O)c1ccccc1 is ____.
33

Fill in the blank: the reported survival of Cc1ccc(NC(=O)/C(C#N)=C/c2ccc(C)o2)cc1 is ____.
79

* * *

- Tested on: DeltatarO mutant
- ASSAY_DETAILS: S. aureus survival, RN4220 and DeltatarO strains – OD600, teichoic acid synthesis inhibitors, primary screen (AID 463173)
- CONDITION_DESCRIPTION: S. aureus RN4220 wild type/DeltatarO growth, OD600, 18 h, hits give low values, screened at 18.75 µg/mL (by protocol)
About 4,300 (8.3%) of roughly 52,000 compounds were called active. The sample as a whole holds a higher share of actives than the screen did.
Each entry below lists one item and its recorded survival value.
State the answer as a number, implicitly in %.

Recorded survival for Cc1ccc(C(C)C)c(OCC(=O)Nc2ccc3c(c2)nc(CCNC(=O)c2ccco2)n3C)c1 with DeltatarO mutant, please?
54

More entries:
Recorded survival for Cc1nn(-c2ccccc2)c(=O)c2ccccc12 with DeltatarO mutant, please?
92

Recorded survival for Cc1ccccc1OCC(=O)Nc1ccc(-c2nc3ncccc3o2)cc1 with DeltatarO mutant, please?
60

Recorded survival for CCOc1ccc(N(Cc2ccccc2)C(=O)c2nc(SCC)ncc2Cl)cc1 with DeltatarO mutant, please?
106

Recorded survival for O=C(NC1CCCC1)c1ccc2c(c1)OCO2 with DeltatarO mutant, please?
69

Recorded survival for COc1ccc(CCN2C(=O)c3oc4cc(C)cc(C)c4c(=O)c3C2c2ccc(F)cc2)cc1OC (stereo not drawn) with DeltatarO mutant, please?
56
